These data points were gathered from patent US20230096028A1.

The entries below are paired with their reported pKd.
- assay system: SOS1 catalytic domain (residues 564-1049) (Homo sapiens, UniProt Q07889)
- Sequence (Q07889 564-1049): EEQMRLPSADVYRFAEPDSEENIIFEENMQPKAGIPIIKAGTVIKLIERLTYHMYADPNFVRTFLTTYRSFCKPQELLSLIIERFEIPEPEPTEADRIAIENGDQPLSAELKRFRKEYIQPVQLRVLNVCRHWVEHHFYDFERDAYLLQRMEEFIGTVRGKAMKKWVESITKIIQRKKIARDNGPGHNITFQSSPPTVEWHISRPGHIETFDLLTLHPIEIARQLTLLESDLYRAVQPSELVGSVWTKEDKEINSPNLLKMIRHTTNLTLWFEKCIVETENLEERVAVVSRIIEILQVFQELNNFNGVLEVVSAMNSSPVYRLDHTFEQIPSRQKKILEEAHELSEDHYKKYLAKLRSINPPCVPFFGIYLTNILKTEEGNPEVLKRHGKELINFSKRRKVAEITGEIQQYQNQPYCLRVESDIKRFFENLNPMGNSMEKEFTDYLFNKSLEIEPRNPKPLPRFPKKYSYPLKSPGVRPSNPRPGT
pKd: −log10 of the molar value.
reported property: pKd

> print(dat)
                                    compound  reported.property  value.measured
 1  CC(Nc1nc(Cl)nc2c1CN(C(=O)N1CCOCC1)C2)c1cc(O)cc(C(F)(F)F)c1 (centres unmarked)                pKd          < 6.40
 2  C[C@@H](Nc1nc(Cl)nc2c1CN(C(=O)N1CCOCC1)C2)c1cccc2c1OCC2(F)F                pKd          > 6.40
 3  Cc1nc2c(c(N[C@H](C)c3cc(N)cc(C(F)(F)F)c3)n1)CN(S(=O)(=O)C1CCOCC1)C2                pKd          > 6.40
 4  C[C@@H]1CN(C(=O)N2Cc3nc(Cl)nc(N[C@H](C)c4cc(N)cc(C(F)(F)F)c4)c3C2)C[C@H](C)O1                pKd          > 6.40
 5  C[C@@H](Nc1nc(Cl)nc2c1CN(C(=O)N1CCOCC1)C2)c1cccc2c(F)coc12                pKd          > 6.40
 6  C[C@@H](Nc1nc(Cl)nc2c1CN(C(=O)N1C[C@H]3C[C@@H]1CN3)C2)c1cccc(C(F)F)c1F                pKd          > 6.40
 7  C[C@@H](Nc1nc(Cl)nc2c1CN(C(=O)N1CCN(C)C(c3ccncc3)C1)C2)c1cccc(C(F)F)c1F (some centres unmarked)                pKd          > 6.40
 8  C[C@@H](Nc1nc(Cl)nc2c1CN(C(=O)[C@@]13COC[C@@H]1CN(S(C)(=O)=O)C3)CC2)c1cc(N)cc(C(F)(F)F)c1                pKd          < 6.40
 9  C[C@@H](Nc1nc(Cl)nc2c1CN(C(=O)[C@H]1CNCCO1)C2)c1cccc(C(F)(F)F)c1                pKd          > 6.40
10  C[C@@H](Nc1nc(Cl)nc2c1CN(C(=O)N1CCN(C)C(C(F)(F)F)C1)C2)c1cccc(C(F)F)c1F (some centres unmarked)                pKd          > 6.40
11  C[C@@H](Nc1nc(Cl)nc2c1CN(C(=O)C1CNCCO1)C2)c1cccc(C(F)F)c1F (some centres unmarked)                pKd          > 6.40
12  C[C@@H](Nc1nc(Cl)nc2c1CN(C(=O)N1CCNc3ccncc31)C2)c1cccc(C(F)(F)F)c1                pKd          > 6.40
13  C[C@@H](Nc1nc(Cl)nc2c1CN(C(=O)C1(F)CN(C3COC3)C1)C2)c1cccc(C(F)F)c1F                pKd          > 6.40
14  CCOCCS(=O)(=O)N1Cc2nc(Cl)nc(N[C@H](C)c3cc(N)cc(C(F)(F)F)c3)c2C1                pKd          < 6.40
15  C[C@@H](Nc1nc(Cl)nc2c1CN(C(=O)N1C3COCC1COC3)C2)c1cccc(C(F)F)c1F                pKd          > 6.40
16  C[C@@H](Nc1nc(CF)nc2c1CN(C(=O)N1CCOCC1)C2)c1cccc(C(F)F)c1F                pKd          > 6.40
17  COC(=O)N1C[C@@H]2COC[C@]2(C(=O)N2CCc3nc(Cl)nc(N[C@H](C)c4cc(N)cc(C(F)(F)F)c4)c3C2)C1                pKd          < 6.40
18  COc1cncc(C(=O)N2CCc3nc(Cl)nc(N[C@H](C)c4cc(N)cc(C(F)(F)F)c4)c3C2)n1                pKd          < 6.40
19  C[C@@H](Nc1nc(Cl)nc2c1CN(C(=O)N1CCOCC1)C2)c1cccc(C(F)(F)C(C)(C)O)c1F                pKd          > 6.40
20  C[C@@H](Nc1nc(Cl)nc2c1CN(C(=O)N1CC3COCC(C1)N3)C2)c1cccc(C(F)F)c1F                pKd          > 6.40
21  C[C@@H](Nc1nc(Cl)nc2c1CN(C(=O)C1CN(C3COC3)C1)C2)c1cccc(C(F)F)c1F                pKd          > 6.40
22  C[C@@H](Nc1nc(Cl)nc2c1CN(C(=O)[C@@H]1CNCCO1)C2)c1cccc(C(F)(F)F)c1                pKd          > 6.40
23  C[C@@H](Nc1nc(Cl)nc2c1CN(C(=O)N1CCC(O)CC1)C2)c1cccc(C(F)F)c1F                pKd          > 6.40
24  C[C@@H](Nc1nc(Cl)nc2c1CN(C(=O)N1CCOCC1)C2)c1cccc(C(C)(C)C#N)c1                pKd          < 6.40
25  C[C@@H](Nc1ncnc2c1CC(N1CC3(COC3)C1)CC2)c1cccc(C(F)(F)CO)c1 (some centres unmarked)                pKd          > 6.40
26  CNCc1ccccc1-c1cnc(C(C)Nc2nc(Cl)nc3c2CN(C(=O)N2CCOCC2)C3)s1 (centres unmarked)                pKd          > 6.40
27  C[C@@H](Nc1nc(Cl)nc2c1CN(C(=O)N1CC[C@H](O)C1)C2)c1cc(N)cc(C(F)(F)F)c1                pKd          > 6.40
28  COC1(C(=O)N2Cc3nc(Cl)nc(N[C@H](C)c4cccc(C(F)F)c4F)c3C2)CCN(CCF)CC1                pKd          > 6.40
29  C[C@@H](Nc1nc(Cl)nc2c1CN(S(=O)(=O)N1CCNCC1)CC2)c1cc(N)cc(C(F)(F)F)c1                pKd          > 6.40
